pEC50 values by entry
System: rat osteocalcin promoter
Assay: OCN (osteocalcin) promoter assay in RG-15 (ROS 17/2.8) cells
Assay type: cell-based
Description: 4. The OCN Promoter test is described in the “Assay” section of the Description, infra. 3. The OCN (Osteocalcin) Promoter Assay The OCN Promoter Assay is an indicator and marker for osteoporosis. Desired assay results are EC50 less than or equal to 325 nM. Preferred assay results are less than 50 nM. […] The activation of osteocalcin by VDR ligands was evaluated in a rat osteoblast-like cell line RG-15 (ROS 17/2.8) stably expressing rat osteocalcin promoter fused with luciferase reporter gene. […]
To interpret pEC50, take it as minus log10 of a concentration measured in moles per litre.

Past entries and their recorded results:
CCC(CC)(c1ccc(OCC(O)C(C)(C)C)c(C)c1)c1cc(C)c(C(=O)N[C@@H](C)C(=O)O)s1 (stereo partly drawn) [Ex. 55]; 7.53
CCC(CC)(c1ccc(OCC(=O)Nc2nnn[nH]2)c(C)c1)c1cc(C)c(CCC(O)C(C)(C)C)s1 (single isomer, unassigned) [Ex. 34]; 7.01
CCC(CC)(c1ccc(OCC(O)C(C)(C)C)c(C)c1)c1cc(C)c(C(=O)N[C@H](C)C(=O)OC)s1 (single isomer, unassigned) [Ex. 56]; 6.78
CCC(CC)(c1ccc(OCC(O)C(C)(C)C)c(C)c1)c1cc(C)c(C(=O)N2CCC[C@H]2C(=O)OC)s1 (single isomer, unassigned) [Ex. 74]; 6.32

Asked: Request body: readout pEC50, system rat osteocalcin promoter, query CCC(CC)(c1ccc(OCC(O)C(C)(C)C)c(C)c1)c1cc(C)c(C(=O)Nc2nnn[nH]2)s1 (single isomer, unassigned) [Ex. 37] . Return the value.
Given back: 6.62

Asked: Request body: readout pEC50, system rat osteocalcin promoter, query CCC(CC)(c1ccc(OCC(C)(O)C(C)(C)C)c(OC)c1)c1ccc(C(=O)N[C@H](C)C(=O)O)s1 (single isomer, unassigned) [Ex. 117] . Return the value.
Given back: 6.99

# credit: patent US7601850B2
